target: N-type Ca2+ channels in IMR-32 cells (Homo sapiens); construct: host or cells: IMR-32 cells, differentiated with dibutyryl cAMP and bromodeoxyuridine; assay: Inhibition of N-type calcium flux in IMR-32 cells (Indo-1 fluorescence, nitrendipine present); type: cell-based; details: 1 μM
*1 amine or outer side, *2 acyl side, *3 side chain or, on linkers, in order; H or OH if unused. Where a SMILES comes first, the peptide text is derived from it. The star is where a group is joined. CO = O=C([*:1])[*:2]; Bn = c1ccc(C*)cc1; OtBu = CC(C)(C)O*
reported-metric: Inhibition of Calcium Flux in IMR-32 Cells % Inhibition at 1 μM (%)

>  <molecule>
COC(=O)C(Cc1ccccc1)NC(=O)NC(CC(C)C)C(=O)NC(Cc1ccc(OCc2ccccc2)cc1)C(=O)OC(C)(C)C (centres unmarked) [Example 66] ({OMe-Phe-CO}-Leu-Tyr(Bn)-OtBu; configuration not given here)

>  <assayed-target>
N-type Ca2+ channels in IMR-32 cells (Homo sapiens)

>  <observed-result>
42

$$$$
>  <molecule>
CCC(CO)(CO)NC(=O)[C@H](Cc1ccc(OCc2ccccc2)cc1)NC(=O)[C@H](CC(C)C)NC(=O)N1CCCCCC1 (relative stereo) [Example 229]

>  <assayed-target>
N-type Ca2+ channels in IMR-32 cells (Homo sapiens)

>  <observed-result>
30

$$$$
>  <molecule>
COc1cccc(C(=O)N[C@@H](CC(C)C)C(=O)N[C@@H](Cc2ccc(OCc3ccccc3)cc2)C(=O)OC(C)(C)C)c1 (relative stereo) [Example 96]

>  <assayed-target>
N-type Ca2+ channels in IMR-32 cells (Homo sapiens)

>  <observed-result>
33

$$$$
>  <molecule>
Cc1ccc(NC(=O)N[C@@H](CC(C)C)C(=O)N[C@@H](Cc2ccc(OCc3ccccc3)cc2)C(=O)OC(C)(C)C)cc1 (relative stereo) [Example 58]

>  <assayed-target>
N-type Ca2+ channels in IMR-32 cells (Homo sapiens)

>  <observed-result>
52

$$$$
>  <molecule>
CCNC(=O)N[C@@H](CC(C)C)C(=O)N[C@@H](Cc1ccc(OCc2ccccc2)cc1)C(=O)OC(C)(C)C (relative stereo) [Example 89]

>  <assayed-target>
N-type Ca2+ channels in IMR-32 cells (Homo sapiens)

>  <observed-result>
30

$$$$

---

biological target: N-type Ca2+ channels in IMR-32 cells (Homo sapiens, UniProt Q00975); assay: Inhibition of N-type calcium flux in IMR-32 cells (Indo-1 fluorescence, nitrendipine present); conditions: IMR-32 cells, 5 μM nitrendipine, K+ depolarization
Sequence (Q00975 whole entry): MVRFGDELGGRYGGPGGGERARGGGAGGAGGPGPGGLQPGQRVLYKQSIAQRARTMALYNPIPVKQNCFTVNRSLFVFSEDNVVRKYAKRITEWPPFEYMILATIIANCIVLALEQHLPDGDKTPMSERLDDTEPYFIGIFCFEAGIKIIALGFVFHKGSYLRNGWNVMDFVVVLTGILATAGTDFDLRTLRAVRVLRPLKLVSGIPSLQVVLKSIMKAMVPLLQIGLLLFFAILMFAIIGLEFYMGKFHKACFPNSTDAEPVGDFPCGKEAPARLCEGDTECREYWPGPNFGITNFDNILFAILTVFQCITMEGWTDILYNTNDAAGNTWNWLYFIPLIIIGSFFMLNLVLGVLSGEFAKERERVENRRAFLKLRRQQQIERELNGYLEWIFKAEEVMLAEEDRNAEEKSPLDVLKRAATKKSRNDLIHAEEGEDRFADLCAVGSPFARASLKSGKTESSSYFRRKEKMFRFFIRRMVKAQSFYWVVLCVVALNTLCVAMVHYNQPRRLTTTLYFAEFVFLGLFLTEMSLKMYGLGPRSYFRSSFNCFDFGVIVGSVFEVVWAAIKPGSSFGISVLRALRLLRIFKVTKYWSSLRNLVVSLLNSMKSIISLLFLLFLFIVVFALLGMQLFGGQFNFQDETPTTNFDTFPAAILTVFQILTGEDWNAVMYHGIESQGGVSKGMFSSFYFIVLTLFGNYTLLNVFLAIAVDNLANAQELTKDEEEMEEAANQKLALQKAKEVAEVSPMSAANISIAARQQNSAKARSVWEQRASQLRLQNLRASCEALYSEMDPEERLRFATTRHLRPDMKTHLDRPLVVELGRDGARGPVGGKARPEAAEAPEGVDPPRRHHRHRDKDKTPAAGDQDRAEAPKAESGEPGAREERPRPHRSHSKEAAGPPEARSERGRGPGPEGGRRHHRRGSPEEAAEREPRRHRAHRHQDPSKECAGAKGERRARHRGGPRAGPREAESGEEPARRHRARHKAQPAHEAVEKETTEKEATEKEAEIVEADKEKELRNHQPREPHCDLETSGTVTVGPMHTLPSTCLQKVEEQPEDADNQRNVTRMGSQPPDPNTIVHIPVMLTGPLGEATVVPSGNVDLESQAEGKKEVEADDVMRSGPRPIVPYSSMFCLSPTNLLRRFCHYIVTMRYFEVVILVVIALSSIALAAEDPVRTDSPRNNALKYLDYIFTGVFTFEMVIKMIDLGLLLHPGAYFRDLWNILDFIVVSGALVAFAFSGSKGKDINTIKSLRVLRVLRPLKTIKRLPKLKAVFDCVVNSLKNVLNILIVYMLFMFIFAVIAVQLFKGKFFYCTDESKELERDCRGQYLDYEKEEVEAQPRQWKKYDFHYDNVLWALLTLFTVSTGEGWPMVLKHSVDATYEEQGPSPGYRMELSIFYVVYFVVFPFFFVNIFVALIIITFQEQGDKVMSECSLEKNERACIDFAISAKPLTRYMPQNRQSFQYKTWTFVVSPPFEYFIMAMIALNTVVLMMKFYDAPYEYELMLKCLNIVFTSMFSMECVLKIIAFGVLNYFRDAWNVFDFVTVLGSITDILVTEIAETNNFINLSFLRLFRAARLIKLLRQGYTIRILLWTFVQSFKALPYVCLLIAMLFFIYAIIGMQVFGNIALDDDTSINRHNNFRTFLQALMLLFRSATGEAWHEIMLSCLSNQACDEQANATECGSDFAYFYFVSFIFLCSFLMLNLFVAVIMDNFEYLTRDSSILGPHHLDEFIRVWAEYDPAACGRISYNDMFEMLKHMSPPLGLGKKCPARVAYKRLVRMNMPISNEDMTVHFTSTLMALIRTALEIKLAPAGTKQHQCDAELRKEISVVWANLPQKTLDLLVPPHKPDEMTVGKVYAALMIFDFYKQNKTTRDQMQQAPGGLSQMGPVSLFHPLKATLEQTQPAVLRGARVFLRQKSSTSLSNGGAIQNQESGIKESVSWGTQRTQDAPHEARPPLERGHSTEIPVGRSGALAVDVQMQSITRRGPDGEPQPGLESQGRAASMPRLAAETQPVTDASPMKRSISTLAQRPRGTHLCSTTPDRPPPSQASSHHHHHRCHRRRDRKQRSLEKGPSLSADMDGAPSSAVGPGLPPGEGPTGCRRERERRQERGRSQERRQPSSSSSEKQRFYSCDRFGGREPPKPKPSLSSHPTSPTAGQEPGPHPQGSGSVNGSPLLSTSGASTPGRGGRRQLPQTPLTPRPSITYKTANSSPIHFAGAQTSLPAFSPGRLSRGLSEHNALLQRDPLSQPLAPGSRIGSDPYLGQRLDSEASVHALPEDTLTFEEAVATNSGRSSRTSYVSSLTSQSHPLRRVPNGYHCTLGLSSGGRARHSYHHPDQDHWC
Sequence (P54289 25-956 partner limits assumed): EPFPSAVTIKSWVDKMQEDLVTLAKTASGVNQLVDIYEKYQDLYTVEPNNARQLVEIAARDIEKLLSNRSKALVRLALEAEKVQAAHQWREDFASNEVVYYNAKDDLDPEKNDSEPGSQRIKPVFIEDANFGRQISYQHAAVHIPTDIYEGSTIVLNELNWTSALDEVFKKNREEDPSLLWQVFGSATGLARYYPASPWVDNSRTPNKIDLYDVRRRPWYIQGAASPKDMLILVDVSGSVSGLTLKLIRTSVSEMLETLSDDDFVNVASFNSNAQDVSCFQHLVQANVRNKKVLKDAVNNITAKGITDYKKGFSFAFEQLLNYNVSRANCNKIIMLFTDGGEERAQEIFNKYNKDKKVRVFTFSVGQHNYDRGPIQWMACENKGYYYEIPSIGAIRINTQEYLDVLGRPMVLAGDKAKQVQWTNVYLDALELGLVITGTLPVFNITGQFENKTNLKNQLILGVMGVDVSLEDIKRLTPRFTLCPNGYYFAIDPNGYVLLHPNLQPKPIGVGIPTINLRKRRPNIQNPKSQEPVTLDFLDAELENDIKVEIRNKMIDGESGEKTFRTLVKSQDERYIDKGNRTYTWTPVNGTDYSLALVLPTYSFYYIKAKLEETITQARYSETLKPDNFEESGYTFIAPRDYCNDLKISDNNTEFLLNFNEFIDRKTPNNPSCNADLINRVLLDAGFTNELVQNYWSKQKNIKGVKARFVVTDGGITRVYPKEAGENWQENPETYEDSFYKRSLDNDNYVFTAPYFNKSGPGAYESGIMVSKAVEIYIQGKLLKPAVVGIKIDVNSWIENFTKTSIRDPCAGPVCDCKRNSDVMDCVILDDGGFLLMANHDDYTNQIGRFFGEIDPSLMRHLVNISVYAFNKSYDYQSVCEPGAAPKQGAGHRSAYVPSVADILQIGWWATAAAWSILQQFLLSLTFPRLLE
Sequence (P54289 957-1103 partner limits assumed): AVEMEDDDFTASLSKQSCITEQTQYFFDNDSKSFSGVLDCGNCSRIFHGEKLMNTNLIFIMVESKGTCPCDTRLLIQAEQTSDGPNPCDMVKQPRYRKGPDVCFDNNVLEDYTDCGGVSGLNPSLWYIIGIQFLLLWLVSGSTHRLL
Sequence (P54284 whole entry partner): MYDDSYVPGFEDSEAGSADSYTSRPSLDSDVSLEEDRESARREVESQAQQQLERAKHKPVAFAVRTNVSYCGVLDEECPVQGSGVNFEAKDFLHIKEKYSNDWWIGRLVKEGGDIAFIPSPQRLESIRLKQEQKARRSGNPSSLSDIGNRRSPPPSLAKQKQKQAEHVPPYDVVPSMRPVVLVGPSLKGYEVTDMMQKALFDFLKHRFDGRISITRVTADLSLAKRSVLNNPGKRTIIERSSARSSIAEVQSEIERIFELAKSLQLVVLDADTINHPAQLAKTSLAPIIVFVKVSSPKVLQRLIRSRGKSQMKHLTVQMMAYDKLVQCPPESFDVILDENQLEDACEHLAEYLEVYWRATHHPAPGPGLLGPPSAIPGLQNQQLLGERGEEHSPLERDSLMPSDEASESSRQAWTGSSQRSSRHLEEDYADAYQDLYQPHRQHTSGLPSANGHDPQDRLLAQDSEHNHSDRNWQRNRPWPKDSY
pIC50: −log10 of the molar value.
Give Met when the value for pIC50 is at least 6. Give Not met when it is less.

>  <compound>
CC(C)CC(NC(=O)N1CCCCCC1)C(=O)NC(C)(Cc1ccc(OCc2ccccc2)cc1)C(=O)OC(C)(C)C (stereo not shown) [Example 11A]

>  <category>
Met

$$$$
>  <compound>
CC(C)C[C@H](NS(=O)(=O)c1ccc(C(C)(C)C)cc1)C(=O)N[C@@H](Cc1ccc(OCc2ccccc2)cc1)C(=O)OC(C)(C)C

>  <category>
Met

$$$$
>  <compound>
CC(C)C[C@H](NC(=O)N1CCCCCC1)C(=O)N[C@@H](Cc1ccc(OCc2ccccc2)cc1)C(=O)NC1CCN(Cc2ccccc2)C1 (stereo in doubt)

>  <category>
Met

$$$$
>  <compound>
CC(C)(C)NC(=O)[C@H](Cc1ccc(OCc2ccccc2)cc1)NC(=O)[C@@H]1CCCN1C(=O)N1CCCCCC1

>  <category>
Not met

$$$$
>  <compound>
CC(C)C[C@H](NC(=O)N1CCCCCC1)C(=O)N[C@@H](Cc1ccc(OCc2ccccc2)cc1)C(=O)N1CC(C)OC(C)C1 (stereo partly shown)

>  <category>
Not met

$$$$
>  <compound>
CC(C)C[C@H](NC(=O)N1CCCCCC1)C(=O)N[C@@H](Cc1ccc(OCc2ccccc2)cc1)C(=O)N[C@H]1CCN(Cc2ccccc2)C1

>  <category>
Met

$$$$
>  <compound>
CC(C)C[C@H](NC(=O)N1CCCCCC1)C(=O)N[C@@H](Cc1ccc(OCc2cccnc2)cc1)C(=O)OC(C)(C)C

>  <category>
Not met

$$$$
>  <compound>
CC(C)C[C@H](NC(=O)N1CCCCCC1)C(=O)N[C@@H](Cc1ccc(OCc2ccccc2)cc1)C(=O)N1CCc2ccccc2C1

>  <category>
Not met

$$$$
>  <compound>
CC(C)C[C@H](NC(=O)N1CCCCCC1)C(=O)N[C@@H](Cc1ccc(OCc2ccccc2)cc1)C(=O)NCc1ccncc1

>  <category>
Not met

$$$$
>  <compound>
CC(C)C[C@H](NC(=O)N1CCCCCC1)C(=O)N[C@@H](Cc1ccc(OCc2ccccc2)cc1)C(N)=O

>  <category>
Not met

$$$$
>  <compound>
CC(C)C[C@H](NC(=O)N1CCCCCC1)C(=O)N[C@@H](Cc1ccc(OCc2ccccc2)cc1)C(=O)NCCCN1CCCC1

>  <category>
Not met

$$$$
>  <compound>
CC(C)(C)NC(=O)[C@H](Cc1ccc(OCc2ccccc2)cc1)NC(=O)[C@H](Cc1ccc(O)cc1)NC(=O)N1CCCCCC1

>  <category>
Not met

$$$$
>  <compound>
CC(C)C[C@H](NC(=O)N1CCCCCC1)C(=O)N[C@@H](Cc1ccc(OCc2ccccc2)cc1)C(=O)NC1CC1

>  <category>
Not met

$$$$
>  <compound>
CC(C)C[C@H](NC(=O)N1CCCCCC1)C(=O)N[C@@H](Cc1ccc(OCc2ccccc2)cc1)C(=O)NCCO

>  <category>
Not met

$$$$
>  <compound>
CC(C)(C)NC(=O)[C@H](Cc1ccc(OCc2ccccc2)cc1)NC(=O)[C@@H]1CC2CCCCC2N1C(=O)N1CCCCCC1 (relative stereo)

>  <category>
Not met

$$$$
>  <compound>
CC(C)C[C@H](NS(=O)(=O)c1ccc(C(C)C)cc1)C(=O)N[C@@H](Cc1ccc(OCc2ccccc2)cc1)C(=O)OC(C)(C)C

>  <category>
Met

$$$$

---

target: N-type Ca2+ channels in IMR-32 cells (Homo sapiens); construct: host or cells: IMR-32 cells, differentiated with dibutyryl cAMP and bromodeoxyuridine; experiment: Inhibition of N-type calcium flux in IMR-32 cells (Indo-1 fluorescence, nitrendipine present); assay type: cell-based; conditions: IMR-32
Give y when the value for inhibition at 10 µM is at least 90%. Give n when it is less.

>  <compound>
CC(C)CC(NC(=O)N1CCCCCC1)C(=O)NC(Cc1ccc(OCc2ccccc2)cc1)C(=O)N1CCCC1CNc1ccccc1 (stereo not shown) [Example 218]

>  <category>
y

$$$$
>  <compound>
CC(C)C[C@H](NC(=O)N1CCCCCC1)C(=O)N[C@@H](Cc1ccc(OCc2ccccc2)cc1)C(=O)Nc1cccc(C(F)(F)F)c1 [Example 214]

>  <category>
n

$$$$
>  <compound>
CSCCC(CO)NC(=O)[C@H](Cc1ccc(OCc2ccccc2)cc1)NC(=O)C(CC(C)C)NC(=O)N1CCCCCC1 (stereo in doubt) [Example 238]

>  <category>
y

$$$$
>  <compound>
COc1ccc(COc2ccc(C[C@H](NC(=O)[C@H](CC(C)C)NC(=O)N3CCCCCC3)C(=O)OC(C)(C)C)cc2)cc1 [Example 32]

>  <category>
n

$$$$
>  <compound>
CC(C)C[C@H](NC(=S)Nc1ccccc1Cl)C(=O)N[C@@H](Cc1ccc(OCc2ccccc2)cc1)C(=O)OC(C)(C)C [Example 48]

>  <category>
n

$$$$
>  <compound>
CC(C)C[C@H](NS(=O)(=O)c1ccc(Br)cc1)C(=O)N[C@@H](Cc1ccc(OCc2ccccc2)cc1)C(=O)OC(C)(C)C [Example 38]

>  <category>
n

$$$$
>  <compound>
CC(C)C[C@H](NC(=O)N1CCCCCC1)C(=O)N[C@@H](Cc1ccc(CCc2ccccc2)cc1)C(=O)NC(C)(C)C [Example 144]

>  <category>
n

$$$$
>  <compound>
CC(C)C[C@H](NC(=O)N1CCCCCC1)C(=O)N[C@@H](Cc1ccc(OCc2ccccc2)cc1)C(=O)NCCCN1CCN(C)CC1 [Example 187]

>  <category>
n

$$$$
>  <compound>
CC(C)C[C@H](NC(=O)N1CCCCCC1)C(=O)N[C@@H](Cc1ccc(OCc2ccccc2)cc1)C(=O)Nc1nccs1 [Example 207]

>  <category>
n

$$$$

---

biological target: N-type Ca2+ channels in IMR-32 cells (Homo sapiens, UniProt Q00975); construct: host or cells: IMR-32 cells, differentiated with dibutyryl cAMP and bromodeoxyuridine; assay: Inhibition of N-type calcium flux in IMR-32 cells (Indo-1 fluorescence, nitrendipine present); type: cell-based; details: IMR-32
Measured inhibition at 10 µM values are reported for all entries that follow.

>  <compound>
CC(C)CC(NC(=O)N1CCCCCC1)C(=O)NC(C)(Cc1ccc(OCc2ccccc2)cc1)C(=O)OC(C)(C)C (stereo not drawn) [Example 11A]

>  <assayed-target>
N-type Ca2+ channels in IMR-32 cells (Homo sapiens, UniProt Q00975)

>  <unit-of-measurement>
%

>  <inhibition at 10 µM>
88

$$$$
>  <compound>
CC(=O)N1CCN(C(=O)[C@H](Cc2ccc(OCc3ccccc3)cc2)NC(=O)[C@H](CC(C)C)NC(=O)N2CCCCCC2)CC1

>  <assayed-target>
N-type Ca2+ channels in IMR-32 cells (Homo sapiens, UniProt Q00975)

>  <unit-of-measurement>
%

>  <inhibition at 10 µM>
66

$$$$
>  <compound>
CC(C)C[C@H](NS(=O)(=O)N1CCCCCC1)C(=O)N[C@@H](Cc1ccc(OCc2ccccc2)cc1)C(=O)OC(C)(C)C

>  <assayed-target>
N-type Ca2+ channels in IMR-32 cells (Homo sapiens, UniProt Q00975)

>  <unit-of-measurement>
%

>  <inhibition at 10 µM>
86

$$$$

These measurements were taken from patent US6423689B1.
